experiment: NCI Yeast Anticancer Drug Screen. Data for the mlh1 rad18 strain (AID 175); conditions: S. cerevisiae mlh1 rad18 strain growth inhibition; at 5.0 µM (retest, dose inferred, filed as 0.5); active compounds read high
Compounds without any hit were thinned out: in the full panel of roughly 79,000, 15% have a hit.
Below, each entry is listed with its recorded growth inhibition.
Give just the numeric value; % need not be written.

Below, 3 compounds whose answers are already recorded.
compound	readout value
CCN(CC)CCNc1ccc2ncn3c4ccc(O)cc4c(=O)c1c23	25
C=CC(C)(C)N1C(=O)C(C(C)=O)=C(O)C1Cc1c[nH]c2ccccc12 (stereo not drawn)	55
CN(CCOc1ccc(Cl)cc1)CCOc1ccc(Cl)cc1	22

Task: Which growth inhibition is listed for COC(=O)C1=C(C(=O)OC)CC(n2nnc(C(=O)OC)c2C(=O)OC)=CC1 ?
Result: -2

Task: Likewise for NNc1ccccc1-c1nc2ccccc2[nH]1 ?
Result: -114

Task: Now the same for O=C1c2cccc3cccc(c23)C(=O)N1CCNCCN1C(=O)c2cccc3cccc(c23)C1=O
Result: 4

Task: Now try O=CC1(F)CC1(c1ccccc1)c1ccccc1 (stereo not drawn) .
Result: -1

Task: # repeat for CC(C)[Si]1(C(C)C)OCC2OC(n3cnc4c(N)ncnc43)C(N)C2O[Si](C(C)C)(C(C)C)O1 (stereo not drawn)
Result: 47

----------
Assay: NCI Yeast Anticancer Drug Screen. Data for the rad50EPP+ strain (AID 151);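 note: 0% = growth of vehicle-treated control cultures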
Details: S. cerevisiae rad50 mutant strain, at 100.0 µM, active compounds read high
Method: Growth inhibition of yeast strains with defined genetic alterations is measured as a screen for potential anti-cancer activity. Selected strains with alterations in DNA damage repair or cell cycle control were exposed to compounds and growth inhibition was measured relative to vehicle treated controls. The strain used in this assay is rad50EPP+
Compounds without any hit were thinned out: in the full panel of roughly 79,000, 15% have a hit.
endpoint name: growth inhibition (%)
Response body: numeric value in %, unit text excluded.

Examples with answers:
compound	unit descriptor	growth inhibition
CCCCCCCN(CCCCCCC)CC(=O)c1ccc2cc(Cl)c3ccccc3c2c1	%	94
O=C1Nc2ccc(Br)cc2C1=Nc1cccnc1	%	16
CC(=O)O/N=C1C=C/C(=C(/C#N)c2ccccc2)C=C/1C	%	94
Nc1ccc2cc(Br)ccc2c1Br	%	49
N#[N+]c1c([O-])c2ccccc2c2ccccc12	%	96
NNc1ccccc1-c1nc2ccccc2[nH]1	%	59
O=S(=O)(c1ccccc1)N1CN2CN(C1)CN(S(=O)(=O)c1ccccc1)C2	%	-10
CC(C)(N=Nc1ccc(Cl)cc1)[N+](=O)[O-]	%	96

Task: Give its growth inhibition value. Item: NC(=O)NC1C(c2ccccc2)=C1c1ccccc1
Result: 95

Task: Another compound to look at: CCC(=O)Nc1ccc(N=NN(C)C)cc1
Result: 99

Task: Then Cc1ccc(S(=O)(=O)N/N=C/C(Br)=C(/Br)C(=O)O)cc1 ?
Result: 82

Task: Follow-up item: O=S(=O)(NC1CCCC(c2ccccc2)C1)c1ccccc1 (configuration not stated)
Result: 20

----------
growth inhibition values, listed per item
assay: NCI Yeast Anticancer Drug Screen. Data for the wt1 strain (AID 149);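 note: 0% = growth of vehicle-treated wt1 cultures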; details: S. cerevisiae wt1 strain (SPY 50644) growth inhibition; at 33.0 µM; active compounds read high
The panel holds about 79,000 compounds, 15% with a hit somewhere; the sample as a whole holds those more often. Active and inactive are the calls of the source. Rule as the data show it: active = growth inhibition above about 70%; inactive = the rest.

Task: Look up growth inhibition: Cc1ccc([N+](=O)[O-])c2c(NCCC[N+](C)(C)[O-])c3ccccc3nc12
Result: 2% (inactive)

Task: Next: CCCCCCCCCCCCCCCCCCN(C)C(COC)COP(=O)([O-])OCC[N+](C)(C)C (stereo unspecified)
Result: 99% (active)

Task: Note, next up: COc1cc(OC)c(CSCC(NC(=O)OCC2c3ccccc3-c3ccccc32)C(=O)O)c(OC)c1 (stereo unspecified)
Result: 96% (active)
